Numbers sourced from the RepoRT retention time repository (doi:10.1021/acs.analchem.2c02893).

experiment-notes: RP, Thermo Scientific Acclaim RSLC 120 C18, 100 × 2.1 mm, 2.2 µm, 30 °C, 0.2 mL/min, estimated dead time 1.1 min; A: 90% water + 10% methanol + 0.01% formic acid + 5 mM ammonium formate, pH 3.61; B: methanol + 0.01% formic acid + 5 mM ammonium formate, pH 3.61; gradient (min/%B) 0/1 1/1 2/39 13/99.9 15/99.9 15.1/1 20.1/1
reported-conditions: stereoisomer not certain
# strict inequality: LC retention time < 10 min yields T, everything else yields F

A selection of reference data follows.
INSERT INTO results (molecule, category) VALUES
  ('O=c1ccc2cc(OC3OC(CO)C(O)C(O)C3O)c(O)cc2o1 (centres undefined) [Esculin]', 'T'),
  ('CC(=O)C1(O)CCC2C3CC(C)C4=CC(=O)CCC4(C)C3CCC21C (centres undefined) [Medroxyprogesterone]', 'F'),
  ('CCCC(C)C(=O)Nc1ccc(C)c(Cl)c1 (centres undefined) [Pentanochlor]', 'F'),
  ('CCCCC1C(=O)N(c2ccccc2)N(c2ccccc2)C1=O [Phenylbutazone]', 'T'),
  ('CNC1=C(c2cccc(C(F)(F)F)c2)C(=O)C(c2ccccc2)O1 (centres undefined) [Flurtamone]', 'T'),
  ('CCOP(=S)(OCC)SC(CCl)N1C(=O)c2ccccc2C1=O (centres undefined) [Dialifos]', 'F');

In the record for CCc1cccc(CC)c1N(COC)C(=O)CS(=O)(=O)O [Alachlor-ESA] , is LC retention time less than 10 min? T

Decide: LC retention time of Cc1cc(Cl)ccc1OC(C)C(=O)O (centres undefined) [Mecoprop] strictly below 10 min? T

* * *

experiment-notes: RP, Thermo Scientific Acclaim RSLC 120 C18, 100 × 2.1 mm, 2.2 µm, 30 °C, 0.2 mL/min, estimated dead time 1.1 min; A: 90% water + 10% methanol + 0.01% formic acid + 5 mM ammonium formate, pH 3.61; B: methanol + 0.01% formic acid + 5 mM ammonium formate, pH 3.61; gradient (min/%B) 0/1 1/1 2/39 13/99.9 15/99.9 15.1/1 20.1/1
reported-conditions: stereoisomer not certain
Decide using LC retention time: a value greater than or equal to 8 min is T, a smaller one is F.

Consider the following illustrative entries.
INSERT INTO assay_data (compound, category) VALUES
  ('CC(C)C(O)(c1ccc(OC(F)(F)F)cc1)c1cncnc1 (stereo not drawn)', 'T'),
  ('COc1ccc2c3c1OC1C(OC(C)=O)=CCC4C(C2)N(C)CCC314 (stereo not drawn)', 'F'),
  ('CN(C)C(=N)N=C(N)N', 'F'),
  ('CC(C)(C)C(O)C(=Cc1ccc(Cl)cc1Cl)n1cncn1 (stereo not drawn)', 'T'),
  ('CCNc1nc(Cl)nc(NC(C)CC)n1 (stereo not drawn)', 'T'),
  ('O=S(=O)(O)c1ccc2ccccc2c1', 'F');

hey, is LC retention time for this one >= 8 min? CC1c2cccc(O)c2C(O)=C2C(=O)C3(O)C(O)=C(C(N)=O)C(=O)C(N(C)C)C3C(O)C21 (stereo not drawn) F

Identify whether the reported LC retention time of the following compound is 8 min or greater: NC(=O)N1c2ccccc2C=Cc2ccccc21 [Carbamazepine] F

Check if LC retention time >= 8 min (inclusive). Item: CCC(C)n1c(=O)[nH]c(C)c(Br)c1=O (stereo not drawn) F

Is it the case that CCN(CC)C(=O)C(C#N)=Cc1cc(O)c(O)c([N+](=O)[O-])c1 has LC retention time reaching or exceeding 8 min? F
